Target: TYK2 (Homo sapiens, UniProt P29597)
Sequence (P29597 whole entry): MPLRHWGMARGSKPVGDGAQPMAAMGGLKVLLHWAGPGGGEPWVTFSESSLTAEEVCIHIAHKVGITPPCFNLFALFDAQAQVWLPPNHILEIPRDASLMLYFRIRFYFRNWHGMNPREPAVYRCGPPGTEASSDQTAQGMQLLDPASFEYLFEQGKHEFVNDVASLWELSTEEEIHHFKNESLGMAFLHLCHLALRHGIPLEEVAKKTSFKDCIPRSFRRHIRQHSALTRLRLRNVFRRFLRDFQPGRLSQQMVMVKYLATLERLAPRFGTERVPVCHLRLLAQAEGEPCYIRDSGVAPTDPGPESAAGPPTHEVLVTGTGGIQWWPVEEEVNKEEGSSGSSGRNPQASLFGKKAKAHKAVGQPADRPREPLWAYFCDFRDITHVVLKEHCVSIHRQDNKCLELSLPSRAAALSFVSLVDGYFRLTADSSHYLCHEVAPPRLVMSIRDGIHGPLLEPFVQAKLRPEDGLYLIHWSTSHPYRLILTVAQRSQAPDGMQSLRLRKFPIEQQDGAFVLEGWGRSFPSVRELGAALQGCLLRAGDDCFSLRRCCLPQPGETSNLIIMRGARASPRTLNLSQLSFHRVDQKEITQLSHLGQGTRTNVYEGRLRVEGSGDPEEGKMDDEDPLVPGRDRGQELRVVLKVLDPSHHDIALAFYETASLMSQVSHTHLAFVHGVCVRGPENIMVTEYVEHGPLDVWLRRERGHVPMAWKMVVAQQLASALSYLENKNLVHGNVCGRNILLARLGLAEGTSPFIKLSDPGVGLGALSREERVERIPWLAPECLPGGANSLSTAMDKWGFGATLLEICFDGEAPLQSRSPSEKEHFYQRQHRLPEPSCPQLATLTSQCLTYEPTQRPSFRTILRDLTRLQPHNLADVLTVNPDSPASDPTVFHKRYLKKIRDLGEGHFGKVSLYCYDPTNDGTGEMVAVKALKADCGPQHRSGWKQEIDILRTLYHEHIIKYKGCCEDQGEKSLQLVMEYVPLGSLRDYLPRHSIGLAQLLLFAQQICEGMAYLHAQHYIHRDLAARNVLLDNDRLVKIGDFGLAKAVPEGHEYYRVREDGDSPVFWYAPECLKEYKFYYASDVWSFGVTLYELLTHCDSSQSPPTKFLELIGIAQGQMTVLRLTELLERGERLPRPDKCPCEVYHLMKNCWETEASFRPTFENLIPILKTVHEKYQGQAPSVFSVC
Assay: HEK-Blue IFNα/β reporter assay (SEAP) for TYK2 pseudokinase inhibition
Format: cell-based
Details: HEK-Blue IFNα/β cells, 1 ng/mL human recombinant IFNα
Listed next: entries and their corresponding IC50.

{"columns": ["structure.notation", "IC50"],
 "data": [
  ["Cn1cc2ccc(-n3[nH]c(=O)c4cnc(Nc5ccc(F)cn5)cc43)cc2n1", "< 10 µM"],
  ["COc1ccccc1-n1[nH]c(=O)c2cnc(Nc3ccc(F)cn3)cc21", "> 90 µM"],
  ["COCCC(=O)Nc1cc2c(cn1)c(=O)[nH]n2-c1ccccc1", "30 to 90 µM"],
  ["COc1c(-n2[nH]c(=O)c3cnc(Nc4cc(C)nc(C)n4)cc32)cccc1C(F)(F)F", "> 90 µM"],
  ["COc1c(F)cccc1-n1[nH]c(=O)c2cnc(Nc3cc(C)nc(C)n3)cc21", "10 to 30 µM"],
  ["Cc1cc(Nc2cc3c(cn2)c(=O)[nH]n3-c2cccc(C(F)(F)F)c2)nc(C)n1", "< 10 µM"],
  ["CCc1ccccc1-n1[nH]c(=O)c2cnc(Nc3cc(C)nc(C)n3)cc21", "10 to 30 µM"],
  ["Cn1ccc(Nc2cc3c(cn2)c(=O)[nH]n3-c2ccccc2)n1", "10 to 30 µM"]
]}

* * *

Molecular target: TYK2 (Homo sapiens, UniProt P29597)
Assay: HEK-Blue IFNα/β reporter assay (SEAP) for TYK2 pseudokinase inhibition
Assay type: cell-based
Conditions: HEK-Blue IFNα/β cells, 1 ng/mL human recombinant IFNα
Each item that follows carries a reported IC50.

{"columns": ["structure.notation", "IC50"],
 "data": [
  ["Cc1cc(Nc2cc3c(cn2)c(=O)[nH]n3-c2ccc(OC(F)(F)F)c(F)c2)nc(C)n1", "< 10 µM"],
  ["COc1c(-n2[nH]c(=O)c3cnc(Nc4ccc(F)cn4)cc32)cccc1C(F)(F)F", "> 90 µM"],
  ["N#Cc1ccc(-n2[nH]c(=O)c3cnc(Nc4ccc(F)cn4)cc32)cc1C(F)(F)F", "< 10 µM"],
  ["CS(=O)(=O)c1ccccc1-n1[nH]c(=O)c2cnc(Nc3ccc(F)cn3)cc21", "< 10 µM"],
  ["O=C(Nc1cc2c(cn1)c(=O)[nH]n2-c1cccc(C(F)(F)F)c1)C1CC1", "< 10 µM"],
  ["Cc1ccccc1-n1[nH]c(=O)c2cnc(Nc3ccc(F)cn3)cc21", "30 to 90 µM"],
  ["O=C(Nc1cc2c(cn1)c(=O)[nH]n2-c1ccc(C(F)(F)F)cc1)C1CC1", "< 10 µM"],
  ["Cc1cc(Nc2cc3c(cn2)c(=O)[nH]n3-c2ccccc2)ncc1F", "< 10 µM"]
]}

* * *

Target: UniProtKB P29597
Test: HEK-Blue IL-23 reporter assay (SEAP) for TYK2 pseudokinase inhibition
Format: cell-based
Parameters: HEK-Blue™ IL-23 and IFNα/β cells with a stably-integrated cytokine receptor and STAT3 or STAT1; host or cells: HEK-Blue IL-23 / HEK-Blue IFNα/β cells (HEK293 background)
Details: HEK-Blue IL-23 cells, 10 ng/mL human recombinant IL-23, SEAP reporter; read-out: IL23 IC50
pIC50: −log10 of the molar value.

{"columns": ["structure.notation", "pIC50"],
 "data": [
  ["COc1cccc(-n2[nH]c(=O)c3c(N)nc(Nc4cc(C)nc(C)n4)cc32)c1", "> 5.00"],
  ["COc1c(Cl)cccc1-n1[nH]c(=O)c2cnc(Nc3ccc(F)cn3)cc21", "4.52 to 5.00"],
  ["CC(C)N1CCN(c2cc3c(cn2)c(=O)[nH]n3-c2ccccc2)C1=O", "4.05 to 4.52"],
  ["Cc1cc(Nc2cc3c(cn2)c(=O)[nH]n3-c2cccc(CO)c2)nc(C)n1", "> 5.00"],
  ["O=c1[nH]n(C2CCCC2)c2cc(Nc3ccc(F)cn3)ncc12", "> 5.00"],
  ["COc1cccc(-n2[nH]c(=O)c3cnc(Nc4cnccn4)cc32)c1", "> 5.00"],
  ["COc1cccc(-n2[nH]c(=O)c3cnc(Nc4cc(C#N)ccn4)cc32)c1", "> 5.00"],
  ["COC(=O)c1ccc(-n2[nH]c(=O)c3cnc(Nc4cc(C)nc(C)n4)cc32)cc1", "> 5.00"],
  ["COc1cccc(-n2[nH]c(=O)c3cnc(Nc4cc(C)nc(C)n4)c(F)c32)c1", "4.52 to 5.00"],
  ["Cc1cc(Nc2cc3c(cn2)c(=O)[nH]n3-c2ccccc2F)nc(C)n1", "> 5.00"],
  ["CCc1ccccc1-n1[nH]c(=O)c2cnc(Nc3cc(C)nc(C)n3)cc21", "> 5.00"],
  ["Cc1cc(Nc2cc3c(cn2)c(=O)[nH]n3-c2ccc(C#N)c(Cl)c2)nc(C)n1", "> 5.00"],
  ["COc1c(F)cccc1-n1[nH]c(=O)c2cnc(Nc3ccc(F)cn3)cc21", "< 4.05"],
  ["COc1ccccc1-n1[nH]c(=O)c2cnc(Nc3ccc(F)cn3)cc21", "4.05 to 4.52"],
  ["COc1ccc(-n2[nH]c(=O)c3cnc(NC(=O)C4CC4)cc32)cc1", "> 5.00"],
  ["CCc1ccccc1-n1[nH]c(=O)c2cnc(NC(=O)C3CC3)cc21", "< 4.05"],
  ["CS(=O)(=O)c1ccccc1-n1[nH]c(=O)c2cnc(Nc3ccc(F)cn3)cc21", "> 5.00"]
]}

* * *

Molecular target: UniProt:P29597
Assay: HEK-Blue IFNα/β reporter assay (SEAP) for TYK2 pseudokinase inhibition
Assay type: cell-based
Settings: HEK-Blue IFNα/β cells, 1 ng/mL human recombinant IFNα

{"columns": ["structure.notation", "IC50"],
 "data": [
  ["COc1cccc(-n2[nH]c(=O)c3cnc(Nc4ccc(F)cn4)cc32)c1", "< 10 µM"],
  ["O=C(Nc1cc2c(cn1)c(=O)[nH]n2-c1ccc(OC(F)(F)F)cc1)C1CC1", "< 10 µM"],
  ["COc1cccc(-n2[nH]c(=O)c3c(N)nc(Nc4cc(C)nc(C)n4)cc32)c1", "30 to 90 µM"],
  ["COc1c(-c2ncn(C)n2)cccc1-n1[nH]c(=O)c2cnc(Nc3cc(C)nc(C)n3)cc21", "10 to 30 µM"],
  ["O=c1[nH]n(-c2ccc(Cl)c(Cl)c2)c2cc(Nc3ccc(F)cn3)ncc12", "> 90 µM"],
  ["CS(=O)(=O)c1ccc(-n2[nH]c(=O)c3cnc(Nc4ccc(F)cn4)cc32)cc1", "30 to 90 µM"],
  ["COc1cccc(-n2[nH]c(=O)c3cnc(Nc4cc(OC)ncn4)cc32)c1", "> 90 µM"],
  ["O=c1[nH]n(C2CCCC2)c2cc(Nc3ccc(F)cn3)ncc12", "< 10 µM"],
  ["Cc1cc(Nc2cc3c(cn2)c(=O)[nH]n3C2CCCC2)nc(C)n1", "< 10 µM"],
  ["COc1cc(-n2[nH]c(=O)c3cnc(Nc4cc(C)nc(C)n4)cc32)ccc1Cl", "> 90 µM"],
  ["COc1cc(-n2[nH]c(=O)c3cnc(Nc4ccc(F)cn4)cc32)ccc1C#N", "> 90 µM"],
  ["O=c1[nH]n(-c2ccccc2)c2cc(Nc3ccc(F)cn3)ncc12", "< 10 µM"],
  ["N#Cc1ccc(-n2[nH]c(=O)c3cnc(NC(=O)C4CC4)cc32)cc1Cl", "< 10 µM"],
  ["COc1cccc(-n2[nH]c(=O)c3cnc(Nc4cc(C)nc(C)n4)cc32)c1F", "< 10 µM"],
  ["Cc1cc(Nc2cc3c(cn2)c(=O)[nH]n3-c2cc(Cl)cc(Cl)c2)nc(C)n1", "> 90 µM"],
  ["COc1cccc(-n2[nH]c(=O)c3cnc(NC(=O)C4CC4)cc32)c1", "< 10 µM"],
  ["Cc1cc(Nc2cc3c(cn2)c(=O)[nH]n3-c2ccccc2S(C)(=O)=O)nc(C)n1", "30 to 90 µM"],
  ["Cc1nc(Nc2cc3c(cn2)c(=O)[nH]n3-c2ccccc2)cc(OC(C)C)n1", "10 to 30 µM"],
  ["Cc1cc(Nc2cc3c(cn2)c(=O)[nH]n3-c2ccc(S(C)(=O)=O)cc2)nc(C)n1", "> 90 µM"],
  ["COC(=O)c1ccc(-n2[nH]c(=O)c3cnc(Nc4ccc(F)cn4)cc32)cc1", "< 10 µM"],
  ["N#Cc1ccc(-n2[nH]c(=O)c3cnc(Nc4ccc(F)cn4)cc32)cc1Cl", "< 10 µM"],
  ["COc1ccccc1-n1[nH]c(=O)c2cnc(NC(=O)C3CC3)cc21", "30 to 90 µM"],
  ["Cc1cc(Nc2cc3c(cn2)c(=O)[nH]n3-c2ccc(C#N)c(C(F)(F)F)c2)nc(C)n1", "< 10 µM"],
  ["Cc1cc(Nc2cc3c(cn2)c(=O)[nH]n3-c2ccccc2F)nc(C)n1", "< 10 µM"],
  ["COC(=O)Nc1cc2c(cn1)c(=O)[nH]n2-c1ccccc1", "> 90 µM"],
  ["CC(C)(C)OC(=O)Nc1cc2c(cn1)c(=O)[nH]n2-c1ccccc1", "> 90 µM"],
  ["COc1cc(-n2[nH]c(=O)c3cnc(Nc4cc(C)nc(C)n4)cc32)ccc1F", "< 10 µM"],
  ["Cc1cc(Nc2cc3c(cn2)c(=O)[nH]n3-c2ccc3cn(C)nc3c2)nc(C)n1", "< 10 µM"],
  ["COc1cccc(-n2[nH]c(=O)c3cnc(Nc4cc(C)ncn4)cc32)c1", "< 10 µM"],
  ["COc1cccc(-n2[nH]c(=O)c3cnc(Nc4ccncn4)cc32)c1", "< 10 µM"],
  ["O=C(Nc1cc2c(cn1)c(=O)[nH]n2-c1cccc(OC(F)(F)F)c1)C1CC1", "< 10 µM"],
  ["COc1cccc(-n2[nH]c(=O)c3cnc(Nc4cc(C#N)ccn4)cc32)c1", "< 10 µM"],
  ["CNC(=O)Nc1cc2c(cn1)c(=O)[nH]n2-c1ccccc1", "30 to 90 µM"],
  ["COc1c(F)cccc1-n1[nH]c(=O)c2cnc(Nc3ccc(F)cn3)cc21", "> 90 µM"]
]}

Values compiled from patent US12668594B2.
